tested on: recombinant SmCB1; assay: Kinetic inhibition assay with recombinant SmCB1 (k2nd); assay type: biochemical, S. mansoni; details: second-order rate constant (kinact/Ki); substrate Cbz–Phe–Arg–AMC; pH 5.5, 37 °C; mean ± SE
property: SmCB1 inhibition k2nd (M^–1·s^–1)
Give the value in M^–1·s^–1 but do not write M^–1·s^–1 after it.

>>> result("COC1=CC(=O)N(C(=O)/C=C/[C@H](Cc2ccccc2)NC(=O)[C@H](CC(C)C)NC(=O)[C@H](CC(C)C)OC(=O)[C@H](C(C)C)N(C)C)[C@H]1CC(C)C [compound 11]")
295
>>> result("CCC(C)C(C(=O)OC(CC(C)C)C(=O)NC(CC(C)C)C(=O)NC(C=CC(=O)N1C(=O)C=C(OC)C1Cc1ccccc1)Cc1ccccc1)N(C)C (stereo not drawn) [compound 7]")
942

Problem: Supply reported SmCB1 inhibition k2nd belonging to this molecule: COC1=CC(=O)N(C(=O)/C=C/[C@H](Cc2ccccc2)NC(=O)[C@H](CC(C)C)NC(=O)[C@H](CC(C)C)OC(=O)[C@H](Cc2ccccc2)N(C)C)[C@H]1C [compound 12]
Solution: 212

###

experiment: Cytotoxicity, CellTiter Glo 2.0; type: cell-based; settings: human; panel B; HL-60; 10 µM; 48 h; ± SD; read-out: Cell line viability (%) after treatment with 10 µM compound
property: viability at 48 h, 10 µM (%)
Write the answer as a number in %, unit excluded.

>>> result("COC1=CC(=O)N(C(=O)/C=C/[C@H](C)NC(=O)[C@H](CC(C)C)NC(=O)[C@H](CC(C)C)OC(=O)[C@H](Cc2ccccc2)N(C)C)[C@H]1Cc1ccccc1")
11

Note: attention shifts to another entry.
Problem: Please look at this compound and report its viability at 48 h, 10 µM: CC[C@H](C)[C@@H](C(=O)O[C@@H](CC(C)C)C(=O)N[C@@H](CC(C)C)C(=O)N[C@@H](C)/C=C/C(=O)N1C(=O)C=C(OC)[C@@H]1C)N(C)C [gallinamide A]
Solution: 77

###

Tested on: S. mansoni newly transformed schistosomula (NTS)
Assay: Phenotypic screen with newly transformed schistosomula (NTS)
Type: cell-based
Conditions: 1 μM compound, 48 h; scale 0 to 4
Description: The same 19 gallinamides were screened for bioactivity against S. mansoni newly transformed schistosomula (NTS), the postinvasive parasite stage that feeds on host blood.[40] In this primary assay, the NTS were exposed to 1 and 10 μM compounds for 3 days, and the resulting phenotypic responses were graded from 0 through 4, i.e., the least to the most severe (Table 2 and Table S1). […]
property: schistosomula severity score
Response field accepts a number only; no unit should be typed.

Worked cases, schistosomula severity score given:
>>> result("CCC(C)C(C(=O)OC(CC(C)C)C(=O)NC(CC(C)C)C(=O)NC(C=CC(=O)N1C(=O)C=C(OC)C1Cc1ccccc1)Cc1ccccc1)N(C)C (stereo not shown) [compound 18]")
0
>>> result("COC1=CC(=O)N(C(=O)/C=C/[C@H](Cc2ccccc2)NC(=O)[C@H](CC(C)C)NC(=O)[C@H](CC(C)C)OC(=O)[C@H](Cc2ccccc2)N(C)C)[C@@H]1Cc1ccccc1")
2
>>> result("CCC(C)C(C(=O)OC(CC(C)C)C(=O)NC(CC(C)C)C(=O)NC(C)C=CC(=O)N1C(=O)C=C(OC)C1CC(C)C)N(C)C (stereo not shown)")
4

Problem: Given the compound COC1=CC(=O)N(C(=O)/C=C/[C@H](Cc2ccccc2)NC(=O)[C@H](CC(C)C)NC(=O)[C@H](CC(C)C)OC(=O)[C@H](Cc2ccccc2)N(C)C)[C@H]1Cc1ccccc1 , write its reported schistosomula severity score.
Solution: 0

Problem: For the compound COC1=CC(=O)N(C(=O)/C=C/[C@H](C)NC(=O)[C@H](CC(C)C)NC(=O)[C@H](CC(C)C)OC(=O)[C@H](Cc2ccccc2)N(C)C)[C@H]1Cc1ccccc1 , report schistosomula severity score.
Solution: 4

Problem: Quickly give me recorded schistosomula severity score for COC1=CC(=O)N(C(=O)/C=C/[C@H](Cc2ccccc2)NC(=O)[C@H](CC(C)C)NC(=O)[C@H](CC(C)C)OC(=O)[C@H](Cc2ccccc2)N(C)C)[C@H]1C
Solution: 2

Problem: Using known records, supply schistosomula severity score for CCC(C)C(C(=O)OC(CC(C)C)C(=O)NC(CC(C)C)C(=O)NC(C)C=CC(=O)N1C(=O)C=C(OC)C1Cc1ccccc1)N(C)C (stereo not shown)
Solution: 2

Source: paper PMC11184554
